System: Pseudomonas luteola
TEST: Antimicrobial activity against Pseudomonas luteola expressing blaLUT-2 to blaLUT-6 by Etest method
Format: functional
ENDPOINT: MIC (µg/mL)
Form entry: value (µg/mL) — number only.

compound=CO[C@@]1(NC(=O)Cc2cccs2)C(=O)N2C(C(=O)O)=C(COC(N)=O)CS[C@@H]21 endpoint=MIC value_unit=µg/mL data_value=32
compound=CC(C)(O/N=C(\C(=O)N[C@@H]1C(=O)N2C(C(=O)[O-])=C(C[n+]3ccccc3)CS[C@H]12)c1csc(N)n1)C(=O)O endpoint=MIC value_unit=µg/mL data_value=0.5

Next:
Q) Which MIC value belongs to CO/N=C(\C(=O)N[C@@H]1C(=O)N2C(C(=O)O)=C(COC(C)=O)CS[C@H]12)c1csc(N)n1 ?
A) 2
